- tested.system: T1, VP1 pentamer of BKV genotype IV (recombinant) (BK virus genotype IV, UniProt P14996 30-300)
- T1 construct: also called GIV; VP1 BKV subtype IV; not shown: N-terminal His-tag of pESPRIT002; C-terminal biotin acceptor peptide (BAP) of pESPRIT002
- assay.method.text: ELISA, coated VP1 pentamer
recorded.metric: EC50 (µg/mL)
Give bare numbers, in µg/mL.

Here are 3 binders together with their reported answers.
[
  {
    "binder": "antibody G9P2 (antibody, V domains shown) VH: EVQLLESGGGLVQPGGSLRLSCAASGFTFSSYAMSWVRQAPGKGLEWVSSLTGSGGSTYYRDSVKGRFTIFRDNSKKTLYMQMNSLRAEDTAVYYCAKEGAYSYDFWYFDLWGRGTLVTVSS VL: EIVLTQSPGTLSLSPGERATLSCRASQTVSGNYLAWYQQKPGQSPSLLTYGASSRATGIPDRFTGSGSGTDFTLTISRLEPADFAVYYCQQYGRPLTFGGGTKVEIK",
    "unit.symbol": "µg/mL",
    "EC50": 10
  },
  {
    "binder": "antibody E11P6 (antibody, V domains shown) VH: EVQLVESGGGLVQPGGSLRLSCAASGFTFRSYSMDWVRQAPGKGLEWVSYISGSSNQKYYTDSVRGRFTISRDNAKNSLFLQMNSLRAEDSAVYYCAREDDILTPLYGMDVWGPGTTVTVSS VL: EIVLTQSPDTLSLSPGARATLSCRASQSVRSNYLAWYQQKPGQAPRLLIYGASSRATAIPDRFSGSGSGTDLTLTITRLEPEDFAVYYCHQYASSPRTFGQGTKVEIK",
    "unit.symbol": "µg/mL",
    "EC50": 0.12
  },
  {
    "binder": "antibody G8P6 (antibody, V domains shown) VH: QVQLQESGPGLVRPSQTLSLTCTVSGGSMTSGSYYWSWIRQPAEKGLEWIGRIYTSGRTDYNPSLKSRVAMSIDTSKNQFSLRLTSVTAADTAVYYCARWGDSSAYYYVGDPWGRGTTVTVSS VL: DIQMTQSPSSLSASIGDRVTITCRASQNINTYLYWYQQKPGKAPQLLIYAASNLQTGAPSRFSGSGSGTDFTLTISSLQPADFATYYCQQSFSLPHTFGQGTKLEIK",
    "unit.symbol": "µg/mL",
    "EC50": 0.06
  }
]

Hi there! I need EC50 for each item below, if you can.
1. antibody F2P7 (antibody, V domains shown) VH: EVQLVQSGGGLVQPGGSLKLSCAASGFSSSGSEIHWVRQASGRGLEWIGRVRSTANRHAPGYTESVRGTFTVSRDESKNTASLELKSLKIEDTAVYYCTGVRGVISRYFAMDVWGQGTTVTVSS VL: QSALTQPASVSGSPGQSITISCTGTNSDLGSYNYVSWYRLHPGKDPHLIIYDVTHRPSGVSSRFSGSKSGKTASLTISGLQSEDEAEYFCCSYASVGSPIFGGGTKVTVL
2. antibody B9P6 (antibody, V domains shown) VH: EVQLVESGGGLVQPGGSLRLSCAASGFTFRSYTMDWVRQAPGKGLEWVSCISGSSNHKYYADSVRGRFTISRDNAKNSLFLQMNSLRAEDSAVYYCAREDDILTPLYGMDVWGPGTTVTVSS VL: EIVLTQSPDTLSLSPGARATLSCRASQSVRSNYLAWYQQKPGQAPRLLIYGASSRATAIPDRFSGSGSGTDFTLTITRLEPEDFAVYYCHQYGSSPRTFGQGTKVEIK

Output:
4
0.12

The reported numbers originate from patent EP4659811A1.
